# Test protocol: physchem
# Assay type: physicochemical
# Condition parameters: 37 °C, pH 6.5, fassif, thermodynamic from solid, apparent solubility
Reported metric: solubility (µg/mL)
Response body: numeric value in µg/mL, unit text excluded.

[in] What value of solubility has been reported for the following molecule? CCOC(=O)C1=C(C)NC(C)=C(C(=O)OC)C1c1cccc(Cl)c1Cl (stereo not shown)
[out] 49.3
